Biological target: Nuclear receptor subfamily 1 group I member 2 (Rattus norvegicus)
Test: Rat pregnane X receptor (rPXR) activation by small molecules, qHTS assay (AID 1346983); further: on the % scale 0 is the no-effect control and ±100 the full control effect
Settings: rPXR luciferase reporter cells, One-Glo luminescence, 24 h; stronger effect = higher value
Results filed as inconclusive are left out.
Readout Label: max activation (%)
Numeric answer only, unit % assumed.

[ask] Reported max activation for O=C1Nc2ccc(Cl)cc2C(c2ccccc2Cl)=NC1O (stereo not given) : what is it?
[reply] -2.09

More entries:
[ask] Using the record for CN(C)CCCCCCN(C)C (tested in a mixture with another compound) , report its max activation.
[reply] -5.32

[ask] Quick one: CC(C)CCC(=O)O[C@H]1CC[C@H]2[C@@H]3CCC4=CC(=O)CC[C@]4(C)[C@H]3CC[C@]12C
[reply] 2.99

[ask] And for CC1(C)S[C@@H]2[C@H](N)C(=O)N2[C@H]1C(=O)O ?
[reply] -2.48

[ask] Try this molecule next: OC(c1ccccc1)(c1ccccc1)C1CN2CCC1CC2 (stereo not given)
[reply] 17.5

[ask] Now consider CCC1(C)CC(=O)NC(=O)C1 .
[reply] 0.0054

[ask] And then CCC1(c2ccccc2)C(=O)NC(=O)N(C(=O)c2ccccc2)C1=O (stereo not given) , what is it?
[reply] -3.53

[ask] Thanks! And CCCCCc1cc(O)c2c(c1)OC(C)(C)[C@@H]1CCC(C)=C[C@@H]21 ?
[reply] -3.2

[ask] Cool, now CC1(C)[C@H](C=C(Cl)Cl)[C@H]1C(=O)OCc1c(F)c(F)cc(F)c1F
[reply] 4.71

[ask] Then this molecule: C[C@]12CC[C@H](OS(=O)(=O)O)CC1=CC[C@@H]1[C@@H]2CC[C@]2(C)C(=O)CC[C@@H]12
[reply] -3.4
